The reported measurements were obtained from PubChem BioAssay (NCI).

Test system: MDA-N
Experiment: NCI tumour cell line growth inhibition, 48 h
QUANTITY NAME: TGI

// below: answered compounds
1) C[C@@H](NC(C#N)c1ccco1)c1ccccc1 (stereo partly drawn); > 100 µM
2) O=C1C=CC(=O)c2c1ccc1c3ccccc3n(Cc3ccc([N+](=O)[O-])cc3)c21; > 100 µM
3) CC(=O)NC1C(OCc2ccccc2)OC(CO)C(O)C1OCC(=O)N1CCCC1C(=O)N[C@@H](CCC(=O)NCCCCNc1c2ccccc2nc2cccc([N+](=O)[O-])c12)C(N)=O (stereo partly drawn); 30.6 µM
4) O=C(Nc1ccccc1F)c1cc2ccc(O)cc2oc1=Nc1cccc(F)c1; 43.3 µM
5) O=c1[nH]cc(NCCCl)c(=O)[nH]1; > 100 µM
6) O=[N+]([O-])c1ccccc1N=Nc1c(O)[nH]c2cccc(C(F)(F)F)c12; 33.3 µM
7) CCn1nc(C)c2c1C(=O)NCC(=O)N2; > 100 µM
8) c1ncn(C23C4C5C6C4C2C6C53)n1 (stereo not drawn); > 100 µM

TGI lookup needed for CCc1n[nH]c(=O)n1CCCCCCCCCCCCn1c(CC)n[nH]c1=O , thanks. > 100 µM

O=[N+]([O-])c1ccccc1OCCOc1ccccc1[N+](=O)[O-] , same question. > 100 µM

NC(=O)CNC(=O)[C@@H]1CC(OCCC(=O)O)CN1C(=O)C1CCCN1C(=O)OCc1ccccc1 (stereo partly drawn) , same question. > 100 µM

CCOC(=O)c1c(C)n(Cc2ccc(Cl)cc2Cl)c2c1cc(O)c1[nH]c3c(c12)CCCC3 , same question. 45.6 µM

COc1cc(/C=C2\C(=O)N(c3cccc([N+](=O)[O-])c3)C(c3ccccc3)S2(=O)=O)cc(OC)c1OC (stereo not drawn) , same question. > 100 µM

---

System: SK-MEL-2 melanoma
Assay: NCI tumour cell line growth inhibition, 48 h
QUANTITY NAME: TGI (µM)
Quick note: give the figure in µM, leave out the unit.

1. COc1cccc(N2C(=O)CSC2c2cccc(Oc3ccccc3)c2)c1 (stereo not given); 16.3

Next:
TGI lookup needed for C[N+](C)(C)CCC(=O)CC[N+](C)(C)C , thanks. 66.1

---

Tested on: PC-3 prostate
Assay: NCI tumour cell line growth inhibition, 48 h
In this section we review reported TGI values for a set of molecules.

// below: answered molecules
1. COc1cc(C)ccc1C(=O)c1ccc(C)cc1OC; > 100 µM
2. c1ccc(-c2nc(-c3ccccn3)nc(-c3ccccn3)n2)nc1; > 100 µM

TGI lookup needed for N#CN1C2CCC1CC(=O)C2 , thanks. > 100 µM

---

Tested on: SF-295 CNS
Assay: NCI tumour cell line growth inhibition, 48 h
In this section we review reported TGI values for a set of molecules.

// below: answered molecules
1. Cn1c(=O)c(N=Nc2c(=O)n(C)c(=O)n3c2[nH]c2ccccc23)c2[nH]c3ccccc3n2c1=O; > 100 µM
2. CCc1cccc(C)c1NS(=O)(=O)c1ccccc1; > 100 µM
3. C=C1CCC2C3(C)COC(C)(C)OC3CCC2(C)C1C/C=C1/C(=O)OCC1OC(C)=O (stereo not given); 25.9 µM
4. CC(=O)Nc1ccc2c(C)c3c(nc2n1)[nH]c1ccccc13; 78.8 µM
5. CC(=O)c1c(-c2cccc3ccccc23)c(C#N)c(=S)n(C2OC(CO)C(O)C(O)C2O)c1C (stereo not given); > 100 µM
6. O=C(COc1ccccc1Cl)N1N=C(c2ccc(Cl)cc2)CC1(O)c1ccccc1 (stereo not given); > 100 µM
7. CC(C)=CCN1c2ccccc2NC(=O)CC1C (stereo not given); > 100 µM
8. CCOc1ccccc1CCN=C1NC(=O)/C(=C/c2ccc3ncccc3c2)S1; > 6 µM

TGI lookup needed for CN(C)c1cc2ccccc2oc1=O , thanks. > 100 µM

Cc1c(/C=N/NC(=O)c2ccccc2O)c(=O)n(-c2ccccc2)n1C , same question. > 100 µM

COc1cc(/C=C/C(=O)/C=C/c2cc(OC)c3c(c2)OCO3)cc2c1OCO2 , same question. > 100 µM

CC(=O)NC1C(OCc2ccccc2)OC(CO)C(O)C1OCC(=O)N1CCCC1C(=O)N[C@@H](CCC(=O)NCCCCNc1c2ccccc2nc2cccc([N+](=O)[O-])c12)C(N)=O (stereo not given in full) , same question. > 100 µM

COC(=O)Cc1cc(O)c2c(c1O)C(=O)c1ccccc1C2=O , same question. > 72.4 µM

c1ccc(C2ONC3=NCCN32)cc1 (stereo not given) , same question. > 100 µM

CC1CC[C@@]2(OC1)OC1C[C@H]3[C@@H]4CC=C5CC(OC6OC(CO)C(OC7OC(CO)C(O)C(OC8OCC(O)C(O)C8O)C7OC7OC(CO)C(OC8OC(C)C(OC9OC(C)C(O)C(O)C9O)C(O)C8O)C(O)C7O)C(O)C6O)CCC5(C)[C@H]4CCC3(C)C1[C@@H]2C (stereo not given in full) , same question. 13.8 µM

O=C(O)CN(CC(=O)O)C1CCCCC1N1CC(=O)OC(=O)C1 (stereo not given) , same question. > 100 µM

CC(=O)c1c(C(F)(F)F)n([O-])c2ccccc2[n+]1=O , same question. 4.53 µM

Cn1c(=O)nc2n(-c3ccc(O)cc3)c3ccccc3nc-2c1=O , same question. > 100 µM

Cn1nc2ccc([N+](=O)[O-])c(Cn3nnc4ccccc43)c2n1 , same question. > 100 µM
